Source: patent US10973922B2

- Test system: SKOV-3 ovarian cancer cell
- EXPERIMENT_DESCRIPTION: In vitro cytotoxicity of dolastatin derivatives (PrestoBlue cell viability)
- Format: cell-based, Human
- ASSAY_CONTEXT: SKOV-3, applied to cell culture medium
- Procedure: Human ovarian cancer cell line SKOV-3 was from the ATCC (Manassas, Va., USA). The cells were grown according to the manufacturer's recommendations. Log phase cultures were collected and 5000 cells/well were seeded onto 96-well plates and incubated for 24 h. […] Cell viability was evaluated using PrestoBlue cell viability reagent (Life Technologies, Carlsbad, Calif., USA) according to the manufacturer's instructions. Cells were incubated for 2 h, and dye reduction was measured by absorbance at 570 nm. […]

[
  {
    "COMPOUND": "CCC(C)C(C(CC(=O)N1CCCC1C(OC)C(C)C(=O)NC(Cc1ccccc1)C(=O)O)OC)N(C)C(=O)C(NC(=O)C(C(C)C)N(C)CC(O)C(O)C(O)C(O)COC1OC(CO)C(O)C(O)C1O)C(C)C (stereo not shown)",
    "cytotoxicity compared to 1 (MMAF)": "less cytotoxic"
  },
  {
    "COMPOUND": "CCC(C)C(C(CC(=O)N1CCCC1C(OC)C(C)C(=O)NC(Cc1ccccc1)C(=O)O)OC)N(C)C(=O)C(NC(=O)C(C(C)C)N(C)CC(O)C(O)C(OC1OC(CO)C(O)C(OC2(C(=O)O)CC(O)C(NC(C)=O)C(C(O)C(O)CO)O2)C1O)C(O)CO)C(C)C (stereo not shown)",
    "cytotoxicity compared to 1 (MMAF)": "less cytotoxic"
  }
]
